# particulars: buffer; pH 7.4; 200.0 µM
assay metric: solubility kinetic

Consider the compound `Cc1cc(C)cc(NC(=O)Nc2cccnc2)c1` and give its recorded solubility kinetic.
> 36.2 µg/mL

----------
# particulars: buffer; pH 7.4; 200.0 µM
assay metric: solubility kinetic (µg/mL)
Form entry: value (µg/mL) — number only.

COc1ccc(N(C)C(=S)Nc2ccc3nc(C)c(C)nc3c2)cc1: 4.1
CC(C)COP(=O)(c1ccc(N(C)C)cc1)C(O)c1cccnc1 (stereo not given): 49.6
COc1ccc(CCNC(=O)C2CCN(C(=O)c3ccccc3)CC2)cc1: 49.2
Nc1nc(COc2ccc(F)cc2Cl)nc(N2CCCCC2)n1: 3.4

Consider the molecule C=CCN(C(=O)c1ccccc1)C1CCS(=O)(=O)C1 (stereo not given) and give its recorded solubility kinetic.
37.4

Consider the molecule `N#CCSc1ccccc1NC(=O)CN1C(=O)C(=O)N(Cc2ccccc2)C1=O` and give its recorded solubility kinetic.
43.3

Consider the molecule `Nc1c(Cl)ncnc1NCCc1ccc(O)cc1` and give its recorded solubility kinetic.
37.1

Consider the molecule `Cc1cccc(N2Cc3ccc(Br)cc3C2)c1` and give its recorded solubility kinetic.
4.8

Consider the molecule CC1C(=O)N2CCCc3cc(NC(=O)COc4ccccc4)cc1c32 (stereo not given) and give its recorded solubility kinetic.
50.2

Consider the molecule `O=C(NC1CCCCC1)C(=S)NCCc1ccccc1` and give its recorded solubility kinetic.
1.4

Consider the molecule Cc1sc(N2C(=O)C3C(C2=O)[C@H]2C=C[C@@H]3C2)c(C#N)c1C (stereo not given in full) and give its recorded solubility kinetic.
25.6

----------
# particulars: buffer; pH 7.4; 200.0 µM
Here, each record is paired with measured log10 of solubility kinetic data.
Hi team, quick reminder: these entries are log10 of solubility kinetic (µg/mL).

Past entries and their recorded results:
O=C1NC(=S)NC(=O)C1=Cc1ccc(OCC(=O)N2CCCC2)cc1: 1.71
CC(=O)OCc1ccccc1Sc1ccccc1C(=O)NCc1ccccc1: 1.32

Consider the molecule CC(C)c1ccccc1NC(=O)C1C2C=CC(C2)C1C(=O)O (stereo unspecified) and give its recorded log10 of solubility kinetic.
1.62

Consider the molecule `Cc1cc(C=O)c(C)n1C1CC1` and give its recorded log10 of solubility kinetic.
1.25

Consider the molecule `O=C(Nc1ccc2c(c1)CCC2)c1cc(F)cc(F)c1` and give its recorded log10 of solubility kinetic.
0.57

Consider the molecule `CC(=O)c1ccc(O)c(CSC2=NCCS2)c1` and give its recorded log10 of solubility kinetic.
1.55

Consider the molecule Cc1cc(NC(=O)NC2CC(=O)N(c3ccc4c(c3)OCCO4)C2)no1 (stereo unspecified) and give its recorded log10 of solubility kinetic.
1.69

Consider the molecule `CCCCNCc1cc2ccccc2o1.Cl` and give its recorded log10 of solubility kinetic.
1.50

Consider the molecule `Cc1ccc(Oc2ncccc2N)c2c1CCC2` and give its recorded log10 of solubility kinetic.
1.00

Consider the molecule `CN1CCN(CCC(=O)Nc2cccc(Br)c2)CC1` and give its recorded log10 of solubility kinetic.
1.63

Consider the molecule `COc1ccc(C(=O)Nc2ccc(Cl)c(S(=O)(=O)N3CCOCC3)c2)cc1` and give its recorded log10 of solubility kinetic.
0.46

Consider the molecule `CCc1ccccc1NCc1cc(=O)oc2cc(C)ccc12` and give its recorded log10 of solubility kinetic.
-0.15

Consider the molecule `O=C(Nc1cccc(S(=O)(=O)N2CCCCC2)c1)c1ccc(Cl)nc1` and give its recorded log10 of solubility kinetic.
0.64

Consider the molecule `COc1ccc(CNC(=O)COC(=O)c2ccc(Br)c(S(=O)(=O)N3CCOCC3)c2)cc1` and give its recorded log10 of solubility kinetic.
1.53

Consider the molecule `CCOc1ccc2[nH]c3c(c2c1)CNCC3` and give its recorded log10 of solubility kinetic.
1.41

Consider the molecule `O=[N+]([O-])c1cccnc1Sc1ccccc1Cl` and give its recorded log10 of solubility kinetic.
0.23

Consider the molecule `Cc1nc(SCC(=O)N2CCOCC2)c2c(=O)n(C)c(=O)n(CC(C)C)c2n1` and give its recorded log10 of solubility kinetic.
1.68

Consider the molecule `Cc1ccc(NC(=O)Nc2cccc(F)c2)nc1` and give its recorded log10 of solubility kinetic.
0.11

Consider the molecule `OCc1nc2ccccc2n1CCc1ccccc1` and give its recorded log10 of solubility kinetic.
1.56

Consider the molecule O=C(Cc1ccccc1)NC1CCSc2ccccc21 (stereo unspecified) and give its recorded log10 of solubility kinetic.
1.07

Consider the molecule `Cc1ccc([N+](=O)[O-])cc1NC(=O)c1ccccc1` and give its recorded log10 of solubility kinetic.
0.93

Consider the molecule `Cn1c(SCC#N)nc2ccccc2c1=O` and give its recorded log10 of solubility kinetic.
1.48

Consider the molecule `Cc1ccccc1OCC(=O)OCC(=O)Nc1ccc2c(c1)OCO2` and give its recorded log10 of solubility kinetic.
1.17

Consider the molecule `O=C(NCc1ccccc1)Nc1cccc2ccccc12` and give its recorded log10 of solubility kinetic.
-0.22

Consider the molecule `Cc1ccccc1OCC(=O)OCC(=O)NCc1ccccc1Cl` and give its recorded log10 of solubility kinetic.
1.15

Consider the molecule `COc1ccccc1Nc1nc(Cl)nc(NC(C)(C)C)n1` and give its recorded log10 of solubility kinetic.
0.81

----------
# particulars: buffer; pH 7.4; 200.0 µM
Lab note: anything with solubility kinetic at or over 10 µg/mL counts as Yes; the rest go in No.

O=C(CN1CCOCC1)NNC(=S)Nc1ccc(Cl)cc1: Yes
CC(C)(C)C(=O)NC(=S)Nc1ccc(C(F)(F)F)cc1: No
COC(=O)c1sccc1NC(=O)c1ccc(C#N)cc1: No
COc1ccc(NC(=O)CN2CCN(S(=O)(=O)N(C)C)CC2)cc1: Yes
S=C(Nc1ccc2c(c1)OCCO2)Nc1ccc2c(c1)OCO2: Yes
CCS(=O)(=O)Nc1cccc(C(=O)O)c1: Yes

Does `COC(=O)c1ccccc1N=Nc1c(N)n[nH]c1N` have a reported solubility kinetic of at least 10 µg/mL?
Yes

Does `CC(=O)Nc1cccc(NC(=O)/C=C/c2ccc(S(=O)(=O)N3CCOCC3)cc2)c1` have a reported solubility kinetic of at least 10 µg/mL?
Yes

Does `O=C(CCc1nc(-c2ccc(F)cc2)no1)Nc1cccc(C(=O)NC2CC2)c1` have a reported solubility kinetic of at least 10 µg/mL?
No

Does O=C(c1ccc2c(c1)OCO2)C1CCCN(CC2CCCCC2)C1 (configuration not stated) have a reported solubility kinetic of at least 10 µg/mL?
Yes

Does `COCCNC(=O)C(=O)NNC(=O)CCc1ccccc1` have a reported solubility kinetic of at least 10 µg/mL?
Yes

Does `CN(C)c1ccc(C(=O)N(Cc2ccccc2)Cc2ccccc2)cc1` have a reported solubility kinetic of at least 10 µg/mL?
No

----------
Here, each record is paired with measured solubility kinetic data.
# particulars: buffer; pH 7.4; 200.0 µM

Past entries and their recorded results:
FC(F)(F)c1cnc(N2CCSCC2)c(Cl)c1: < 0.3 µg/mL
O=C(O)C1C2CCC(O2)C1C(=O)Nc1cccc(Br)c1 (configuration not stated): 50.7 µg/mL
CNS(=O)(=O)c1cccc(C(=O)OCC(=O)NC2CCCC(C)C2C)c1 (configuration not stated): 12.7 µg/mL
COc1cccc(CNC(=O)N2CCN(c3ccccc3C)CC2)c1: 15.3 µg/mL
Cc1cc(=O)c2c([nH]1)c(C)cc1[nH]c(C)c(C)c12: > 36 µg/mL
CC1CCc2c(sc3[nH]c(=S)n(C)c(=O)c23)C1 (configuration not stated): 4.2 µg/mL

Consider the molecule `N#CC(=C=[N-])c1nc2ccccc2nc1-[n+]1cccc(NC(=O)c2cccs2)c1` and give its recorded solubility kinetic.
1.5 µg/mL

Consider the molecule `Cc1ccc(NC(=O)CN2CCN(Cc3ccccc3)CC2)cc1F` and give its recorded solubility kinetic.
42.8 µg/mL

Consider the molecule Cc1ccc2c(c1)N(CC(=O)N1CCCC1)C(=O)C(C)O2 (configuration not stated) and give its recorded solubility kinetic.
> 43.3 µg/mL

Consider the molecule `Cc1ccc(F)cc1NC(=O)c1cnccn1` and give its recorded solubility kinetic.
> 34.7 µg/mL

Consider the molecule OC(COc1ccc2c(c1)OCO2)CN1CCCCC1 (configuration not stated) and give its recorded solubility kinetic.
32.5 µg/mL

Consider the molecule CSCCOC(=O)C1=C(C)NC(=O)NC1c1ccc2c(c1)OCO2 (configuration not stated) and give its recorded solubility kinetic.
> 52.6 µg/mL

----------
# particulars: buffer; pH 7.4; 200.0 µM
Lab note: anything with solubility kinetic at or over 10 µg/mL counts as condition met; the rest go in condition not met.

// known answers, use as guide
COc1ccc(CCNC(=O)c2c(C)nc3ccccn23)cc1: condition met
Cc1ccnc(NC2CCCCC2)c1: condition met

Does `COc1cccc(CNc2ncc(-c3ccccc3)n2C)c1` have a reported solubility kinetic of at least 10 µg/mL?
condition met

Does `CCCCOC(=O)Nc1ccc(S(=O)(=O)Nc2nccs2)cc1` have a reported solubility kinetic of at least 10 µg/mL?
condition met
